System: Plasmodium falciparum
PROTOCOL_DESCRIPTION: GSK_TCMDC: Inhibition of Plasmodium falciparum Dd2 in whole red blood cells, using parasite LDH activity as an index of growth. Test compounds present at 2uM
Format: functional
Please use t whenever Inhibition is not below 90%, and f whenever it is.

These recorded examples may help you get a feel for the data.
O=[N+]([O-])c1ccc2nc(Nc3ccc(Cl)c(Cl)c3)c(Nc3ccc(Cl)c(Cl)c3)nc2c1	t
CN1CCCC(CN2CCN(Cc3ccc(-c4ccc(-c5nc6cc(F)ccc6[nH]5)s4)cc3)CC2)C1.O=C(O)C(F)(F)F (centres undefined)	t
CN(C)S(=O)(=O)n1ccc2c3c(N)nc(N)nc3ccc21	f

Does the reported Inhibition for COc1ccc(CN2CCCC(Nc3ccc(F)c(F)c3)C2)c(O)c1 (centres undefined) fall at or above the 90% mark? f

Does the reported Inhibition for CN1CCN(CCCSc2ccc3c(c2)ncn3-c2cc(OCc3ccccc3C(F)(F)F)c(C(N)=O)s2)CC1.O=CO fall at or above the 90% mark? f

Does the reported Inhibition for O=S(=O)(Nc1cccc(CCN2CCC(N3CCCCC3)CC2)c1)c1ccccc1C(F)(F)F fall at or above the 90% mark? f

Does the reported Inhibition for CC(C)CCCC(C)(C)NC[C@@H](O)[C@H](Cc1ccccc1)NC(=O)c1cccc(CCC2CC2)c1 fall at or above the 90% mark? f

// provenance: ChEMBL document CHEMBL1157539
